- ASSAYED SYSTEM: LPAAT-β (Homo sapiens)
- Sequence (O15120 24-278): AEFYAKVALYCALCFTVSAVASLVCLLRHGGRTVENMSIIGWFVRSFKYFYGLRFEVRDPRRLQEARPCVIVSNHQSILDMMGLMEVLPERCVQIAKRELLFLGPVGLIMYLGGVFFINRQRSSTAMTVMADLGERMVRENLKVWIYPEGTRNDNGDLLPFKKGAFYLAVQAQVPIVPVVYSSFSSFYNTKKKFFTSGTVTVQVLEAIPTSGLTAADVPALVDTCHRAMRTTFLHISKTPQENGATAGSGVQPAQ
pIC50: −log10 of the molar value.
READOUT TYPE: pIC50

>>> quantitative_result("COCc1ccc(Nc2nc(N)nc(-c3cc(Cl)ccc3C)n2)cc1 [Example 78]")
6.19
>>> quantitative_result("Cc1ccc(Cl)cc1-c1nc(N)nc(Nc2ccc3c(c2)CCC3)n1 [Example 37]")
6.23
>>> quantitative_result("Cc1ccc(Nc2nc(N)nc(-c3cc(Cl)ccc3C)n2)cc1C [Example 59]")
6.40
>>> quantitative_result("Cc1ccc(Cl)cc1-c1nc(Cl)nc(Nc2ccc(N=[N+]=[N-])cc2)n1 [Example 35]")
6.89
>>> quantitative_result("COCCOc1ccc(Cl)cc1-c1nc(N)nc(Nc2ccc(Cl)cc2)n1 [Example 65]")
6.22
>>> quantitative_result("Nc1nc(Nc2cccc(Cl)c2)nc(-c2cc(Cl)ccc2Cl)n1 [Example 90]")
5.32
>>> quantitative_result("Cc1ccc(Cl)cc1-c1nc(N)nc(Nc2ccc(CC(=O)O)cc2)n1 [Example 60]")
5.89
>>> quantitative_result("Nc1nc(Nc2ccc(Cl)cc2)nc(-c2cc(Br)ccc2Cl)n1 [Example 45]")
7.40
>>> quantitative_result("COc1ccc(Cl)cc1-c1nc(N)nc(Nc2ccc3c(c2)OCO3)n1 [Example 5]")
6.55
>>> quantitative_result("Cc1ccc(Nc2nc(N)nc(-c3cc(Cl)ccc3Cl)n2)cc1 [Example 49]")
6.68
>>> quantitative_result("Cc1ccc(Br)c(-c2nc(N)nc(Nc3ccc(Cl)cc3)n2)c1 [Example 86]")
6.35
>>> quantitative_result("CNc1nc(Nc2ccc(CO)cc2)nc(-c2cc(Cl)ccc2C)n1 [Example 74]")
6.17
>>> quantitative_result("Nc1nc(Nc2ccc(Cl)cc2)nc(-c2cccc(Cl)c2)n1 [Example 16]")
6.10
>>> quantitative_result("COc1ccc(Cl)cc1-c1nc(N)nc(Nc2ccc(Cl)c(Cl)c2)n1 [Example 8]")
6.85
>>> quantitative_result("CCCOc1ccc(Cl)cc1-c1nc(N)nc(Nc2ccc(Cl)cc2)n1 [Example 50]")
6.70
>>> quantitative_result("Nc1nc(Nc2ccc3cn[nH]c3c2)nc(-c2cc(Cl)ccc2Cl)n1 [Example 48]")
6.96
>>> quantitative_result("Cc1ccc(Cl)cc1-c1nc(N)nc(Nc2ccc(CCl)cc2)n1 [Example 88]")
6.74
>>> quantitative_result("Cc1ccc(Cl)cc1-c1nc(C#N)nc(Nc2ccc(Br)cc2)n1 [Example 28]")
6.38
>>> quantitative_result("COc1ccc(Cl)cc1-c1nc(N)nc(Nc2ccc(F)cc2)n1 [Example 15]")
6.37
>>> quantitative_result("Cc1ccc(Cl)cc1-c1nc(N)nc(Nc2ccc(COC(=O)CCC(=O)O)cc2)n1 [Example 70]")
6.08

Hello, the source for this data is patent US7618968B2, in case you need it.
